- TEST DESCRIPTION: levetiracetam blood plasma levels in aMCI subjects
- Format: in vivo
- CONDITIONS: human, 125 mg BID cohort, upon completion of treatment, read-out: mean levetiracetam blood plasma level
MEASURE: concentration at 2 weeks (ng/mL)
Could you give me the number in ng/mL? Just the number is fine.

-- ask Given the entry CC[C@@H](C(N)=O)N1CCCC1=O [levetiracetam, (2S)-2-(2-oxopyrrolidin-1-yl)butanamide] , report its measured concentration at 2 weeks.
-- reply 4400

---

- TEST DESCRIPTION: levetiracetam blood plasma levels in aged-impaired rats
- Type: in vivo
- CONDITIONS: rat, 60 mg/kg/day, 28-day treatment, read-out: mean levetiracetam blood plasma level
MEASURE: concentration at 28 days (ng/mL)
Could you give me the number in ng/mL? Just the number is fine.

-- ask Given the entry CC[C@@H](C(N)=O)N1CCCC1=O [levetiracetam, (2S)-2-(2-oxopyrrolidin-1-yl)butanamide] , report its measured concentration at 28 days.
-- reply 22400
